FYI, the data here is from patent US6350913B1.

assay_notes: Cataleptogenic power (propensity to induce extrapyramidal side effects)
details: rat, in vivo, ip; rats, i.p. administration; read-out: Catalepsy ED50
quantity_name: ED50

# per-item lookup of ED50; items listed below
1. CC(C)Oc1ccccc1OCCNCc1cc(OC2CCCC2)ccc1F
2. CC(C)Oc1ccccc1OCCNCc1cccc(OC2CC3C=CC2C3)c1 (centres unmarked)

> 40 mg/kg
> 40 mg/kg
